Origin of the recorded values: ChEMBL document CHEMBL1154699

Target: Growth factor receptor-bound protein 2 (Homo sapiens)
Assay: Displacement of biotin-Ahx-PSpYVNVQN peptide from GST fused Grb2 SH2 domain by ELISA
observation.type: IC50 (µM)
Numbers only, in µM.

Query the reported IC50 for Growth factor receptor-bound protein 2 (Homo sapiens); item: NC(=O)CNc1nc(Nc2ccc(OP(=O)(O)O)cc2)nc(-c2ccccc2Oc2ccc(OP(=O)(O)O)cc2)n1 265

====

Target: Growth factor receptor-bound protein 2 (Homo sapiens, UniProt P62993)
Sequence (P62993 whole entry, the tested form may be a part): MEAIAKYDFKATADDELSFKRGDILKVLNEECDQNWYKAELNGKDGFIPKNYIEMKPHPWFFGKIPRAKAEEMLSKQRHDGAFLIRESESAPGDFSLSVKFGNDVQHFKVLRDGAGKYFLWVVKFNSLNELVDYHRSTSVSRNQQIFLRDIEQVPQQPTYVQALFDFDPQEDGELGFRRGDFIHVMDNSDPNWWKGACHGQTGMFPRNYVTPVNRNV
Test: Inhibition of Grb2 by ELISA
observation.type: IC50 (nM)
Numbers only, in nM.

Query the reported IC50 for Growth factor receptor-bound protein 2 (Homo sapiens, UniProt P62993); item: Cc1ccc(OC(C)(C)C(=O)N[C@@H](Cc2ccc(OP(=O)(O)O)cc2)C(=O)N[C@@](C)(Cc2ccc(OP(=O)(O)O)cc2)C(=O)N[C@@H](CC(N)=O)C(N)=O)c(/N=N/c2ccccc2)c1 11
